assayed_target: UniProtKB P06737
Sequence (P06737 whole entry): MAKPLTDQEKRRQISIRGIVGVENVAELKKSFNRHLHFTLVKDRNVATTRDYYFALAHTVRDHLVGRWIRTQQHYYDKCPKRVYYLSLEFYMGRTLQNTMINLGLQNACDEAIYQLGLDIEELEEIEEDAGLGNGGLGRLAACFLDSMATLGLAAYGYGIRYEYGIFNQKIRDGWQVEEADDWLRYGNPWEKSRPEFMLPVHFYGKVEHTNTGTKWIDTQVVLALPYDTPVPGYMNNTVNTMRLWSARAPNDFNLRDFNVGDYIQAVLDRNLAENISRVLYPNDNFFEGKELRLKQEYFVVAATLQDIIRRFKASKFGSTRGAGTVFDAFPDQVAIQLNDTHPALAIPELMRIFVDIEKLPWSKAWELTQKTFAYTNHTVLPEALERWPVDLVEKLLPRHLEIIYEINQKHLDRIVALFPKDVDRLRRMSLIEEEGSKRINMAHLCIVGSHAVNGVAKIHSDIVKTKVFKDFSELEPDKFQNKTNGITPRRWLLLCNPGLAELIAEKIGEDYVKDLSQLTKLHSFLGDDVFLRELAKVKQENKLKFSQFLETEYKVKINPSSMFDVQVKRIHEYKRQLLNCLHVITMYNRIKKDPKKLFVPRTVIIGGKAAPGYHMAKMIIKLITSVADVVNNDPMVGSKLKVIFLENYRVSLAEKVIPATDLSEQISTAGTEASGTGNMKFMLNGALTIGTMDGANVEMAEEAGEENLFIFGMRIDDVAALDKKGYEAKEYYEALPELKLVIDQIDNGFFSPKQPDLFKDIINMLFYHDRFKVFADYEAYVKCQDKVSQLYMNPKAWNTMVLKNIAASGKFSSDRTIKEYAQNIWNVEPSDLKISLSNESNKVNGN
method_summary: Glycogen phosphorylase a activity test (reverse direction, release of inorganic phosphate)
Assay type: biochemical
test_context: 10 µM test substance; in vitro, 40 min at room temperature, absorbance at 820 nm; read-out: % Inhibition bei 10 µM
Procedure: Glykogenphosphorylase a Aktivitätstest Der Effekt von Verbindungen auf die Aktivität der aktiven Form der Glykogenphosphorylase (GPa) wurde in der umgekehrten Richtung, durch Verfolgen der Glykogensynthese aus Glukose-1-Phosphat an Hand der Bestimmung der Freisetzung von anorganischem Phosphat, gemessen. Prüfsubstanzen wurden als 10 mM Lösung in DMSO zubereitet und auf 50 µM mit Pufferlösung T verdünnt. […]
measured_quantity: inhibition at 10 µM (%)

In [3]: df
Out[3]:
                                   compound    measured_quantity  readout_unit  number
0  O=C(NC(=O)c1ccccc1Cl)Nc1ccc(C(=O)O)cc1[N+](=O)[O-]  inhibition at 10 µM             %      71
1  O=C(NC(=O)c1ccc(Cl)cc1Cl)Nc1ccc(C(=O)O)cc1[N+](=O)[O-]  inhibition at 10 µM             %      85

A. O=C(NC(=O)c1ccc(Cl)cc1Cl)Nc1ccc(C(=O)O)cc1O
B. CCOC(=O)c1ccc(NC(=O)NC(=O)c2c(F)cccc2F)cc1 [Vergleichsbeispiel A, reference compound]
Query block: When A and B are compared, which has the higher number for inhibition at 10 µM? // return label of chosen record
Result block: A
